Origin of values: the supplement of paper PMC8728848

# Target System: Fuc(a1-3)[Gal(b1-4)]GlcNAc
# Protocol Details: glycan array binding signal (z-score within array); higher = stronger binding
# Assay Context: glycan notation: IUPAC condensed, linker removed
Many of the other results were omitted from the sample, so the strongest signals are more common in it than they were.

Binder	glycan array binding signal (z-score)
Epa13 (Candida glabrata) (protein) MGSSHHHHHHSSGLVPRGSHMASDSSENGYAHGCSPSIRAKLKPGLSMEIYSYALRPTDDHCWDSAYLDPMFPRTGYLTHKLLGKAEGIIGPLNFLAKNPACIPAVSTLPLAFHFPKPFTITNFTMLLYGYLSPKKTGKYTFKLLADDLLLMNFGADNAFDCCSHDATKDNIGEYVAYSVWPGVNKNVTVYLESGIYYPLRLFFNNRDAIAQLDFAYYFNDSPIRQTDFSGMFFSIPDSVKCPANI	-0.454
FaeGac (Escherichia coli) (protein) WMTGDFNGSVDIGGSITADDYRQKWEWKVGTGLNGFGNVLNDLTNGGTKLTITVTGNKPILLGRTKEAFATPVTGGVDGIPHIAFTDYEGASVVLRKPDGETNKNGLAYFVLPMKNAGGTKVGSVKVNASYAGVLGRGGVTSADGELLSLFADGLSSIFYGGLPRGSELSAGSAAAARTKLFGSLSRDDILGQIQRVNANVTSLVDVAGSYRENMEYTDGNVVSAAYALGIANGQTIEATFNQAVTTSTQWSAPLNVAITYY	-0.598
PEB4 (Campylobacter jejuni), A1VYV6 (protein) MKKFSLVAAALIAGVALNVNAATVATVNGKSISDAEVSEFFAPMLRGQDFKTLPDNQKKALIQQYIMQDLILQDAKKQNLEKDPLYTKELDRAKDAILVNVYQEKILNTIKIDAAKVKAFYDQNKDKYVKPARVQAKHILVATEKEAKDIINELKGLKGKELDAKFSELAKEKSIDPGSKNQGGELGWFDQSTMVKPFTDAAFALKNGTITTTPVKTNFGYHVILKENSQAKGQIKFDEVKQGIENGLKFEEFKKVINQKGQDLLNSAKVEYK	-0.387
GH98CBM51-1 (Streptococcus pneumoniae) (protein) MTYLSDMDWSSATHGDIDKTKTVQKDAPFTTGNKGEHTKISLLTSDDKVKYFDKGIGTVADSPSVISYDISGQGFEKFETYIGIDQSANSSRSDHAVVDRIEIEIDGKVVYSSSVTNPEGFRYNTQAQFISVTIPQNAKKISLKSFAGEHTWGDEVVFADAKLIKTVST	-0.192
